Where do the numbers come from? From paper PMC10668032.

- system: SIX1-Q177R homeodomain (human, UniProt Q15475 108-198, Q177R)
- Sequence: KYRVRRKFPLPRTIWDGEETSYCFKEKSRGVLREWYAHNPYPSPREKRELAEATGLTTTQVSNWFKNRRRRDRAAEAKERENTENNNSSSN
- runDescription: universal protein binding microarray; Universal all-10-mer PBM (8x60K, AMADID 030236), 300 nM GST-tagged protein, Alexa Fluor 488 anti-GST; buffer, salt, pH and temperature not stated (as in Berger); high values mean tight binding
- experimentalParameters: protein: ivt; tags: N-terminal GST; dsDNA, one strand shown
The full ranking holds about 33,000 sequences; the median of “e-score” is about -0.05, and the highest 2% start at about 0.38. Shown is part of a subset that was picked to be rich in the highest values.
measure: binding signal

CACCTAGC
0.168 E-score
GTGTTCTA
0.392 E-score
AACACTCG
0.337 E-score

Query: Return the recorded binding signal value; entry: CTAAACAC
Response: 0.364 E-score

Query: Give me measured binding signal, please, for this sequence: ACCCCCAT
Response: 0.272 E-score

Query: Identify binding signal associated with the sequence CCGCCCGA
Response: 0.174 E-score

Query: Please give measured binding signal of the following entry: ACCTGGGG
Response: 0.21 E-score

Query: Answer with the recorded binding signal of CACCACGG only.
Response: 0.226 E-score

Query: Consider the sequence GTAAACAC . State its measured binding signal.
Response: 0.375 E-score

Query: Provide binding signal value for the following sequence: CACTGCCG
Response: 0.26 E-score

Query: Give the reported binding signal for this sequence. ATCTTACA
Response: 0.262 E-score
